assay.comment: Plasma pharmacokinetics of ginsenosides in rats after 1-week repeated RGE
conditions.used: LC-MS/MS, after RGE 1.5 g/kg/day po for 1 week

>  <molecule>
CC(C)=CCC[C@](C)(O[C@@H]1O[C@H](CO)[C@@H](O)[C@H](O)[C@H]1O)[C@H]1CC[C@]2(C)[C@@H]1[C@H](O)C[C@@H]1[C@@]3(C)CC[C@H](O[C@@H]4O[C@H](CO)[C@@H](O)[C@H](O)[C@H]4O)C(C)(C)[C@@H]3CC[C@]12C

>  <detection in rat plasma>
not detected

$$$$
>  <molecule>
CC(C)=CCC[C@](C)(O[C@@H]1O[C@H](CO)[C@@H](O)[C@H](O)[C@H]1O)[C@H]1CC[C@]2(C)[C@@H]1[C@H](O)C[C@@H]1[C@@]3(C)CC[C@H](O)C(C)(C)[C@@H]3[C@@H](O[C@@H]3O[C@H](CO)[C@@H](O)[C@H](O)[C@H]3O[C@@H]3O[C@@H](C)[C@H](O)[C@@H](O)[C@H]3O)C[C@]12C [Re, ginsenoside Re]

>  <detection in rat plasma>
not detected

$$$$
>  <molecule>
CC(C)=CCC[C@](C)(O)[C@H]1CC[C@]2(C)[C@@H]1[C@H](O)C[C@@H]1[C@@]3(C)CC[C@H](O[C@@H]4O[C@H](CO)[C@@H](O)[C@H](O)[C@H]4O)C(C)(C)[C@@H]3CC[C@]12C [Rh2, ginsenoside Rh2]

>  <detection in rat plasma>
not detected

$$$$
>  <molecule>
CC(C)=CCC[C@](C)(O[C@@H]1O[C@H](CO)[C@@H](O)[C@H](O)[C@H]1O)[C@H]1CC[C@]2(C)[C@@H]1[C@H](O)C[C@@H]1[C@@]3(C)CC[C@H](O)C(C)(C)[C@@H]3CC[C@]12C

>  <detection in rat plasma>
not detected

$$$$
>  <molecule>
CC(C)=CCC[C@](C)(O[C@@H]1O[C@H](CO)[C@@H](O)[C@H](O)[C@H]1O)[C@H]1CC[C@]2(C)[C@@H]1[C@H](O)C[C@@H]1[C@@]3(C)CC[C@H](O)C(C)(C)[C@@H]3[C@@H](O)C[C@]12C

>  <detection in rat plasma>
not detected

$$$$

====

measurement.target: OATP1B3 (Homo sapiens)
Sequence (Q9NPD5 whole entry): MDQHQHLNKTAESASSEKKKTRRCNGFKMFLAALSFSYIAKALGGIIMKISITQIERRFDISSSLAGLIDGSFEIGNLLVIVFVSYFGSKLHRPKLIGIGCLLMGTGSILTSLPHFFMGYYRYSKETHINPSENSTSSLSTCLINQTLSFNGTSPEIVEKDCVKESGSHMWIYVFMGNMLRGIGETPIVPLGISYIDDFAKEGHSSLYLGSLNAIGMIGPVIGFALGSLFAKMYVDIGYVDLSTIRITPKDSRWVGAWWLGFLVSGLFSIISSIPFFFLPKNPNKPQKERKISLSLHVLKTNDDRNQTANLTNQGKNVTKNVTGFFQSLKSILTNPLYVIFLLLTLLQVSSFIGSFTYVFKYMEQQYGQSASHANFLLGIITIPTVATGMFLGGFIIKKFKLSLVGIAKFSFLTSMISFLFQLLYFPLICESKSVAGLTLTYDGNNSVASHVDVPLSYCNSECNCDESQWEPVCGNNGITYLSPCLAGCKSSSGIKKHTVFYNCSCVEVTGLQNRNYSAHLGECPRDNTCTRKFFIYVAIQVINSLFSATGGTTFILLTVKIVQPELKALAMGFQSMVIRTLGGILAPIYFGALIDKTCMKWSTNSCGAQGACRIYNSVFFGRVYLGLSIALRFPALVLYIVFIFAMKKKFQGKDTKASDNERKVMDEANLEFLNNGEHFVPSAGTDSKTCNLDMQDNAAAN
assay.comment: Inhibition of OATP1B3-mediated [3H]estradiol-17β-D-glucuronide uptake in HEK293-OATP1B3 cells
Excerpt: HEK293 cells overexpressing the OCT1, OCT2, OAT1, OAT3, OATP1B1, and OATP1B3 transporters (HEK293-OCT1, -OCT2, -OAT1, -OAT3, -OATP1B1, and -OATP1B3, respectively) and HEK293-mock cells (Corning Life Sciences; Woburn, MA, USA) were used and characterized as previously described. […]
pIC50: −log10 of the molar value.
experimental.readout: pIC50

>  <compound>
CC(C)=CCC[C@](C)(O[C@@H]1O[C@H](CO[C@@H]2O[C@@H](CO)[C@H](O)[C@H]2O)[C@@H](O)[C@H](O)[C@H]1O)[C@H]1CC[C@]2(C)[C@@H]1[C@H](O)C[C@@H]1[C@@]3(C)CC[C@H](O[C@@H]4O[C@H](CO)[C@@H](O)[C@H](O)[C@H]4O[C@@H]4O[C@H](CO)[C@@H](O)[C@H](O)[C@H]4O)C(C)(C)[C@@H]3CC[C@]12C [Rc, ginsenoside Rc]

>  <experimental.readout>
pIC50

>  <readout.value>
5.87

$$$$
>  <compound>
CC(C)=CCC[C@](C)(O[C@@H]1O[C@H](CO)[C@@H](O)[C@H](O)[C@H]1O)[C@H]1CC[C@]2(C)[C@@H]1[C@H](O)C[C@@H]1[C@@]3(C)CC[C@H](O)C(C)(C)[C@@H]3[C@@H](O[C@@H]3O[C@H](CO)[C@@H](O)[C@H](O)[C@H]3O)C[C@]12C [Rg1, ginsenoside Rg1]

>  <experimental.readout>
pIC50

>  <readout.value>
< 4.00

$$$$
>  <compound>
CC(C)=CCC[C@](C)(O[C@@H]1O[C@H](CO)[C@@H](O)[C@H](O)[C@H]1O)[C@H]1CC[C@]2(C)[C@@H]1[C@H](O)C[C@@H]1[C@@]3(C)CC[C@H](O)C(C)(C)[C@@H]3[C@@H](O[C@@H]3O[C@H](CO)[C@@H](O)[C@H](O)[C@H]3O[C@@H]3O[C@@H](C)[C@H](O)[C@@H](O)[C@H]3O)C[C@]12C [Re, ginsenoside Re]

>  <experimental.readout>
pIC50

>  <readout.value>
< 4.00

$$$$
